- target desc: acetylcholine receptor
- test: SPR, AchR immobilised on CM5 chip, peptide 10 uM

binder: KFHNRK [6mer-2-685]
Binding affinity (RU): 15
--
binder: KRPHKK [6mer-1-983]
Binding affinity (RU): 38
--
binder: KFDARK [6mer-2-774]
Binding affinity (RU): 17
--
binder: KYTNRR [6mer-2-692]
Binding affinity (RU): 29
